B1: TOR1AIP2 (parent)
chain: YKYCDHENAAFKDVALVLTVLLEE

variants of: B1; assay: protein stability index of a GFP-peptide fusion (GPS, HEK-293T) (PSI 1-6); higher = more stable; details: c terminus: a fixed tail appended;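 note: lentivirally expressed fusions sorted by FACS into six bins by GFP to DsRed ratio, PSI derived from sequencing read proportions per bin multiplied by bin number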
REPORTED ENDPOINT: protein stability index
Just the number, please.

Would you please look over these solved cases?
{"SEQUENCE CODE": "YKYCDHENAAFKDVALVLTPLLEE [V20P]", "protein stability index": 2.23}
{"SEQUENCE CODE": "YKYCDHENAIFKDVALVLTVLLEE [A10I]", "protein stability index": 2.35}
{"SEQUENCE CODE": "YKYCDHENARFKDVALVLTVLLEE [A10R]", "protein stability index": 1.01}
{"SEQUENCE CODE": "YKYCDHENAAFKDVALALTVLLEE [V17A]", "protein stability index": 3.79}
{"SEQUENCE CODE": "NKYCDHENAAFKDVALVLTVLLEE [Y1N]", "protein stability index": 2.13}
{"SEQUENCE CODE": "YKYCDHENAAFKDVALVLTVLLEF [E24F]", "protein stability index": 3.27}
{"SEQUENCE CODE": "YKYCDHENAAFKDDALVLTVLLEE [V14D]", "protein stability index": 1.46}
{"SEQUENCE CODE": "YMYCDHENAAFKDVALVLTVLLEE [K2M]", "protein stability index": 1.96}

// Input: YKYCDHENAAFKDVALVLTQLLEE [V20Q] . Output its protein stability index only. 1.56

// Input: YKYCDHENAAFKDVALVLTVLLEH [E24H] . Output its protein stability index only. 3.71

// Input: YDYCDHENAAFKDVALVLTVLLEE [K2D] . Output its protein stability index only. 2.03
